These data points were gathered from the DeepSol protein solubility set.

# test name: soluble on expression in E. coli; label from the status in PepcDB or PDB records
parameter measured: soluble on expression in E. coli

Note down soluble on expression in E. coli recorded for `MTESYDVVVVGGGPVGLATAWQVAERGHRVLVLERHTFFNENGGTSGAERHWRLQYTQEDLFRLTLETLPLWRALESRCERRLIHEIGSLWFGDTDVVTNEGQISGTAAMMDKLSVRYEWLKATDIERRFGFRGLPRDYEGFLQPDGGTIDVRGTLAALFTLAQAAGATLRAGETVTELVPDADGVSVTTDRGTYRAGKVVLACGPYTNDLLEPLGARLAYSVYEMAIAAYRQATPVTEAPFWFAFQQPTPQDTNLFFGFGHNPWAPGEFVRCGPDFEVDPLDHPSAATGVADRRQMDRLSGWLRDHLPTVDPDPVRTSTCLAVLPTDPERQFFLGTARDLMTHGEKLVVYGAGWAFKFVPLFGRICADLAVEDSTAYDISRLAPQSALLEHHHHHH` soluble

Note soluble on expression in E. coli for the sequence shown: `MFKIGSVLKQIRQELNYHQIDLYSGIMSKSVYIKVEADSRPISVEELSKFSERLGVNFFEILNRAGMNTKSVNETGKEKLLISKIFTNPDLFDKNFQRIEPKRLTSLQYFSIYLGYISIAHHYNIEVPTFNKTITSDLKHLYDKRTTFFGIDCEIVSNLLNVLPYEEVSSIIKPMYPIVDSFGKDYDLTIQTVLKNALTISIMNRNLKEAQYYINQFEHLKTIKNISINGYYDLEINYLKQIYQFLTDKNIDSYLNAVNIINIFKIIGKEDIHRSLVEELTKISAKEKFTPPKEVTMYYENYVAIENNPIPEIKEQS` soluble

* * *

# test name: soluble on expression in E. coli; label from the status in PepcDB or PDB records
parameter measured: soluble on expression in E. coli

Solved cases (5 shown):
Give soluble on expression in E. coli for `MGSDKIHHHHHHMADAPIDIFQSILSRKSIRAFTDQPVTQETIREILKLAARAPSGTNLQPWQVIVLTGKILQKVGQELSQLVLSGIKGEREYHYYPRQWREPYLSRRRKVGLDLYKSLGIQKGDQEKMLHQKAKNFLFYGAPVGLLFTIDHDMEMGSWLDLGMFMQTIMLAARGFGLDTCAQAAFADYHKQIRSLLSVPSDRHIICGMALGYRDMNAPENNFETEREPIDNFVHFIKSYP` not soluble

Entry `MGHHHHHHSHMKDLTDMDKNSPEAWCAAGNCFSLQREHDIAIKFFQRAIQVDPNYAYAYTLLGHEFVLTEELDKALACFRNAIRVNPRHYNAWYGLGMIYYKQEKFSLAEMHFQKALDINPQSSVLLCH` needs its soluble on expression in E. coli filled in; supply it. not soluble

Give the reported value of soluble on expression in E. coli for this record: `MVTEFAKEMIKNADSCGAQDIYVIPRQDNYELYMRVGQERRLIDVYRPDFMASLIGHFKFVAGMMVGEKRRSQLGSCDYDCGDGHLVSLRLSTVGDYRGLESLVIRILH` not soluble

Provide measured soluble on expression in E. coli value, entry: `MSLMYGYPEKWLEGMTTGEGIAAELRLGIVNGHIAEGTLLTENQMAKQFNVSRSPIRDAFKLLQQNQLIQLERMGAHVLPFGEQEKKEMYDLRLMLESFAFSRVKNQERLPIVKEMKKQLEMMKVAVKFEDAESFTKHDFEFHETLIKASNHQYLNSFWSHLKPVMMALVLTSMRQRMQQNPQDFERIHHNHQVFIDAVEQYDSQILKEAFHLNFDDVGKDIEGFWLNEGHHHHHH` soluble

Complete the entry with soluble on expression in E. coli for `MSLENSQELTPWQRLTIARMLERPTSLEYIDLIFDSFMEFHGDRAFGDDAAIVGGVAEFNGMPVTVIGQQKGRNTNENIKRNFGMPSPEGYRKALRLMKQAEKFNRPLICFVDTSGAYCGVEAEQRGQGEAIAKNLISMANLKIPVISVVIGEGGSGGALAMAVADEVWMLENSVYSLLSPEGFASILWKDSSRAKEAAEVMKITADDLKGYGIIDKVIKEPDGGAQNDITMVANALRENLKKAIEGLSSTGINELLDNRYNKFRQIGKFIENEDNEGHHHHHH` soluble

Please find the next sequence below.
# return recorded soluble on expression in E. coli for entry `MSLIDARLATEIVVRTVEVMPFDVNVMDAHGVILASSDAARVGEIHAGAQLALARARAVEIDDAMAANLSGARPGINLPLSVRGKVCGVIGVTGEPDAVRGFGELLRVTAELILEREQLTVELRRNARHREEFVLQLLRRTAAAAELEAWADRLGIDMRLAHAAIVCRLSGVDTEPEAGVGQIEAMQSQLAQEWPQLLSAKTSYRELVMFDAVDARAGRDGVLATHAGKRLAALEDTLRKVATQPFSLALGIALDGIDGFERSYQCALATLRVGAARTPQRAAYSYYDFVLPVLLSALSQGWQARQLRLPLTRLLARERRSGALLDTLKAWYAHDGHPSATAQALGIHRNTLDYRLQQIRDATGLDLGAIDDRLWLYIALQTMAGEGHHHHHH` soluble

* * *

# test name: soluble on expression in E. coli; label from the status in PepcDB or PDB records
parameter measured: soluble on expression in E. coli

A selection of reference data follows.
Please supply the value of reported soluble on expression in E. coli for the item `MGHHHHHHSHMVNVKGSTKKSNLDRFLHCITPLVPPQSLPKTEIRTLNRLWHPWERQKVEFFRLSDLWDCYDEWSAYGASVPIHVTNGESLVQYYVPYLSAIQIFTSHSSLIRLREESEDGECEGRDPFSDSGSDESVSEEGLENNTLLHPSDRLGYLYLQYFERSAPYTRVPLMDKINELAQRYPGLMSLRSVDLSPASWMSVAWYPIYHIPMGRTIKDLSTCFLTYHTLSSSFQDMEPEENGGDKERVRREGEDITLLPFGMATYKMQGDVWLSQDHDDQERLASLYSVADSWLKQLRVQHHDFNYFCNMSMTHRG` soluble

For the sequence `MGSDKIHHHHHHMGRYLERTEHISRFSQAHYFFSIDAPKSVKKEHILESVLNMAGSYVEYLGSGNKMETMEVAYYIGLNEFNASSIKHSIVKARENARGAKDSISSELWQSINTFYHSINLMDRATFNEMGIYEFSKNVLQNSSVIKGNIDNTLLHEEAWSIIHLGQHIERTTQVIRMIVTKINDINRIPKKEYYNMIELFENVNLLKSTEAYDMSKIFYREVPSVSHSLEFLTLNRNFPKSIVYNLRHIEHCLLRITNLSKHETNSLEFYASKLLCTVKYTSIQDIEKEPLAFYNDLLNKVAKLADMLETKYLQY` , give its reported soluble on expression in E. coli. not soluble

Could you please provide reported soluble on expression in E. coli for `MGSDKIHHHHHHMITCQMIHKTYAAGHGERKVLRGLDFAISRGEHVGFLGRNGAGKTTLIKLLGGVEFPTAGTIRRRMTVSWPLGFGGGFQGSLTGYDNARFIARIYGMSYRDIADFVEDFTELGRQLRAPVKTYSQGMRARLAFALSMAIEFDCYLVDEVILVGDHRFHEKCRLELFGKRSDRALILASHNAALIREHCTRAMVLHDGRGTMHDDIDLALRHYEAL` ? Thanks! not soluble

Kindly indicate its recorded soluble on expression in E. coli. Item: `ARRLYVGNIPFGITEEAMMDFFNAQMRLGGLTQAPGNPVLAVQINQDKNFAFLEFRSVDETTQAMAFDGIIFQGQSLKIRRPHDYQPLPG` soluble

Look up soluble on expression in E. coli of `MGSDKIHHHHHHMQIRADFDSGNIQVIDASDPRRIRLAIRPDLASQHFQWFHFKVEGMAPATEHCFTLVNAGQSAYSHAWSGYQAVASYDGERWFRVPSQYDADGLHFQLEPEESEVRFAYFEPYSRERHARLVERALGIEGVERLAVGTSVQGRDIELLRVRRHPDSHLKLWVIAQQHPGEHMAEWFMEGLIERLQRPDDTEMQRLLEKADLYLVPNMNPDGAFHGNLRTNAAGQDLNRAWLEPSAERSPEVWFVQQEMKRHGVDLFLDIHGDEEIPHVFAAGCEGNPGYTPRLERLEQRFREELMARGEFQIRHGYPRSAPGQANLALACNFVGQTYDCLAFTIEMPFKDHDDNPEPGTGWSGARSKRLGQDVLSTLAVLVDELR` and report it. not soluble

Give me measured soluble on expression in E. coli, please, for this sequence: `MYNITLPVLGTRLKQIREHVGYSQAQLAEQLNCKQNAISNLELGKGGSLKLLFQVLNFYSNYVFIDLIFSEKFYLISNTEEDEAQKANYNSVIIEIIRQSEKNYENAMSNAKKELEANLQKAINLLQP` not soluble

Continuing:
Output measured soluble on expression in E. coli for this item: `MSLSFLYFNDNSKIANAPLKNRFEKTQKESLIIKNNNEDKKAKSKPKFYLIIDDVGYDEFMLEQFIKLNLKITYAIIPFLPKSMSLYKKLKNANKTVIIHFPMQSKHRNSIEKFHINIKDKKEEIHKKIEKAFKKYPDAKIMNNHMGSLITSNKDLMKIILEKLKEIDRYFFDSVTIAGSVPEIIGKEIGVKVEKRDVFLDSKDTEESVTKELEKAKNIARKNGMVKVIGHIWSKNTLKVLKKEGPDLNQEFEFDNLLNLYEETIREGHHHHHH` not soluble

Give the value of soluble on expression in E. coli reported for the following: `MGSDKIHHHHHHMEMNEVIIDENLKESIDLWTFMLPIISHRTTIRKNIHGYMPLHWHDELQFVVIIQGEARFQVNEEAIIVQEGDGLFINSGCLHMVEDGNGSNCVYICLNVPAQSIISRELYTAYVAPYVQATNLPYVLIPSSEMWGQNIIEATLNIHQCLEEQPPYYEMDITTKLTVIWKSLITNGFPLEYDQSAMIKNQRMKAMLQWIHLHYGENIRLDDIAKAGQLSRSECCRYFKRTLKMTPLQYVTDYRIQKSVTLLQQPESNVTDVAYQVGFNSTSYFIDQFRKAMNMTPLRYKKSKLERLID` not soluble

Supply recorded soluble on expression in E. coli for `MKHQHQHQHQHQHQQPLNEEFRPEMLQGKKVIVTGASKGIGREMAYHLAKMGAHVVVTARSKETLQKVVSHCLELGAASAHYIAGTMEDMTFAEQFVAQAGKLMGGLDMLILNHITNTSLNLFHDDIHHVRKSMEVNFLSYVVLTVAALPMLKQSNGSIVVVSSLAGKVAYPMVAAYSASKFALDGFFSSIRKEYSVSRVNVSITLCVLGLIDTETAMKAVSGIVHMQAAPKEECALEIIKGGALRQEEVYYDSSLWTTLLIRNPSRKILEFLYSTSYNMDRFINK` here. soluble

Specify reported soluble on expression in E. coli for the sequence shown: `SLSTRGINFLHQWIANNVPETTKPDAVSISEITHKLFSDAKALGIKREDIDEEVESLTAHCSIGLCISTLA` not soluble

State, in one line, measured soluble on expression in E. coli of `MGSSHHHHHHHSSGRENLYFQGHMEGVRWAFSCGTWLPSRAEWLLAVRSIQPEEKERIGQFVFARDAKAAMAGRLMIRKLVAEKLNIPWNHIRLQRTAKGKPVLAKDSSNPYPNFNFNISHQGDYAVLAAEPELQVGIDIMKTSFPGRGSIPEFFHIMKRKFTNKEWETIRSFKDEWTQLDMFYRNWALKESFIKAIGVGLGFELQRLEFDLSPLNLDIGQVYKETRLFLDGEEEKEWAFEESKIDEHHFVAVALRKPDGSRHQDVPSQDDSKPTQRQFTILNFNDLMSSAVPMTPEDPSFWDCFCFTEEIPIRNGTKSLESG` soluble
